Values compiled from patent US7727960B2.

# subject.of.test: human C5aR (CD88) (human, UniProt P21730 1-350)
# Sequence (looked up): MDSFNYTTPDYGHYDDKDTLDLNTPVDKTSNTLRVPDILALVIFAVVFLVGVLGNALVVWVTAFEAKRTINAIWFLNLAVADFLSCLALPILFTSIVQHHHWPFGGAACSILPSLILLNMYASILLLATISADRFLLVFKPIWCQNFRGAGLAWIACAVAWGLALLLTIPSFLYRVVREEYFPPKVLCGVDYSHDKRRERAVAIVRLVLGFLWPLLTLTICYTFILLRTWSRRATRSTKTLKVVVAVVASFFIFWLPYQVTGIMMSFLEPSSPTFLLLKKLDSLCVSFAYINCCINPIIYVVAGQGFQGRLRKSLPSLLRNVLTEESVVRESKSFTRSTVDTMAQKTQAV
# method: cell-based or functional assay
parameter.measured: IC50 activity group, enzyme release assay

Would you please look over these solved cases?
Ac-Phe-Orn-Chy-hle-Pff-Phe-NH2 (peptide); < 200 nM
tBu-CO-Phe-Orn-Pro-cha-Bta-Phe-NH2 (peptide); < 200 nM
Ac-Phe-Orn-Pro-hle-Bta-Eaa-NH2 (peptide); < 200 nM

Note to self: IC50 activity group, enzyme release assay recorded for Ac-Thi-Orn-Pro-cha-Bta-Phe-NH2 (peptide) was < 50 nM

Note to self: IC50 activity group, enzyme release assay recorded for Ac-Phe-Orn-Tic-cha-Trp-Phe-NH2 (peptide) was < 200 nM

---

# subject.of.test: human C5aR (CD88) (human, UniProt P21730 1-350)
# Sequence (looked up): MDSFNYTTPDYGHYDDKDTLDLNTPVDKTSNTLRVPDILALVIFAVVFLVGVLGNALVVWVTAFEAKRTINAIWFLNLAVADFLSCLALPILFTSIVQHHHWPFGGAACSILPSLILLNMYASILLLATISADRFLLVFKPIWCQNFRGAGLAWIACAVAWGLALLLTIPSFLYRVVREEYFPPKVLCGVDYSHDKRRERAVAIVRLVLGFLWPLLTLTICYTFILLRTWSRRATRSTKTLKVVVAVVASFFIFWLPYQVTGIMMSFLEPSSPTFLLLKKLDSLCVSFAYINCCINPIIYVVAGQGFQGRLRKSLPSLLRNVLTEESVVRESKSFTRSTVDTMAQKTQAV
# method: cell-based or functional assay
parameter.measured: IC50 activity group, enzyme release assay

Ac-Phe-Eec-Pro-cha-Bta-Phe-NH2 (peptide); < 200 nM

The substance Ac-Phe-Orn-Pro-hle-Bta-Chg-NH2 (peptide) , tested on human C5aR (CD88) (human, UniProt P21730 1-350), showed IC50 activity group, enzyme release assay of < 200 nM

The substance Ac-Phe-Ffa-Pro-hle-Bta-Phe-NH2 (peptide) , tested on human C5aR (CD88) (human, UniProt P21730 1-350), showed IC50 activity group, enzyme release assay of < 20 nM

The substance Ac-His-Phe-Orn-Aze-cha-Bta-Phe-NH2 (peptide) , tested on human C5aR (CD88) (human, UniProt P21730 1-350), showed IC50 activity group, enzyme release assay of < 200 nM

---

# subject.of.test: human C5aR (CD88) (human, UniProt P21730 1-350)
# Sequence (looked up): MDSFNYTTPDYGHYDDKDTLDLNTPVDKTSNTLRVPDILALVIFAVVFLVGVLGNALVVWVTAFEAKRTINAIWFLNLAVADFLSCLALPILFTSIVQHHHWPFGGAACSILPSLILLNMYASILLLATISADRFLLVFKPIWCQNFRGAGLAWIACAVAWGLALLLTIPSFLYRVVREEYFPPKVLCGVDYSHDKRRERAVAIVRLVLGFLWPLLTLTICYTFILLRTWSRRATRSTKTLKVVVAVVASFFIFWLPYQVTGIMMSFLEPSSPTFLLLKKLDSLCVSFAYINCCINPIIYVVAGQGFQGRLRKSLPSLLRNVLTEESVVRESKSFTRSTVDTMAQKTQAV
# method: cell-based or functional assay
Here, each record is paired with measured IC50 activity group, enzyme release assay data.

Would you please look over these solved cases?
Ac-Gly-Phe-Orn-Aze-cha-Bta-Phe-NH2 (peptide); < 20 nM
Ac-Phe-Orn-Pro-cha-Bta-Bhf-NH2 (peptide); < 50 nM
Ac-Phe-Orn-Aze-cha-Bta-Phe-NH-Me (peptide); < 2000 nM
Ac-Phe-Orn-Pro-hle-Pff-Eaa-NH2 (peptide); < 200 nM

Note to self: IC50 activity group, enzyme release assay recorded for Ac-Phe-Orn-Pro-hle-Tff-Phe-NH2 (peptide) was < 200 nM

Note to self: IC50 activity group, enzyme release assay recorded for Ac-Phe-Orn-Pro-hle-Mcf-Pff-NH2 (peptide) was < 200 nM

Note to self: IC50 activity group, enzyme release assay recorded for Ac-Mff-Orn-Pro-hle-Bta-Phe-NH2 (peptide) was < 200 nM

Note to self: IC50 activity group, enzyme release assay recorded for Ac-Phe-Ffa-Pro-cha-Bta-Phe-NH2 (peptide) was < 50 nM
